- Experiment: Approximate solubility of starting material at RT in 20 solvents
- Format: physicochemical
- Experimental setup: organic solvent or mixture, Toluene
Readout: solubility

Smiles repr | Recorded result
CCCCC1(CCCC)CS(=O)(=O)c2ccc(N(C)C)cc2[C@@H](c2ccc(O)cc2)[C@H]1O | < 2.8 mg/mL

As a next step, examine the molecule that follows.
Notebook: `CCCCC1(CCCC)CS(=O)(=O)c2ccc(N(C)C)cc2[C@@H](c2ccc(OC)cc2)[C@H]1O` , solubility read as > 54 mg/mL

----------
Would you kindly list solubility for each of these compounds?
- Experiment: Approximate solubility of starting material at RT in 20 solvents
- Assay type: physicochemical
- Experimental setup: organic solvent or mixture, EtOH

Smiles repr | solubility
CCCCC1(CCCC)CS(=O)(=O)c2ccc(N(C)C)cc2[C@@H](c2ccc(O)cc2)[C@H]1O | 2.7 to 9.3 mg/mL

Notebook: `CCCCC1(CCCC)CS(=O)(=O)c2ccc(N(C)C)cc2[C@@H](c2ccc(OC)cc2)[C@H]1O` , solubility read as 27 to 54 mg/mL
